System: 171881-019-R-J1-PDC tumor spheroids, viability;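 note: spheroids exposed to compounds for 7 days; 100% = DMSO vehicle control viability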
Assay: Anticancer human tumor 171881-019-R-J1-PDC patient-derived invasive breast carcinoma cell line growth inhibition [GQUAD]
Settings: second compound 0.0316 µM; first compound 0.316 µM; hits give low values; spheroids with HUVEC and MSC
viability, T/C overview

>  <compound>
CCCS(=O)(=O)Nc1ccc(F)c(C(=O)c2c[nH]c3ncc(-c4ccc(Cl)cc4)cc23)c1F + CN(C)c1ccc(Nc2c3ccc(NC(=O)CCN4CCCC4)cc3nc3cc(NC(=O)CCN4CCCC4)ccc23)cc1

>  <viability, T/C>
102%

$$$$
>  <compound>
CC1COCCN1c1cc(-c2ccnn2C)c2ccnc(-c3ccn[nH]3)c2n1 (stereo not given) + Cc1[nH]c2ccc(F)cc2c1-c1nc2c3cccnc3c3ncccc3c2[nH]1

>  <viability, T/C>
14.5%

$$$$
>  <compound>
CCCS(=O)(=O)Nc1ccc(F)c(C(=O)c2c[nH]c3ncc(-c4ccc(Cl)cc4)cc23)c1F + Cc1[nH]c2ccc(F)cc2c1-c1nc2c3cccnc3c3ncccc3c2[nH]1

>  <viability, T/C>
102%

$$$$
>  <compound>
CC(=O)O[C@H]1C(=O)[C@@]2(C)[C@H]([C@H](OC(=O)c3ccccc3)[C@]3(O)C[C@H](OC(=O)[C@H](O)[C@@H](NC(=O)c4ccccc4)c4ccccc4)C(C)=C1C3(C)C)[C@]1(OC(C)=O)CO[C@@H]1C[C@@H]2O + Cc1[nH]c2ccc(F)cc2c1-c1nc2c3cccnc3c3ncccc3c2[nH]1

>  <viability, T/C>
35.5%

$$$$
>  <compound>
C=CCn1c(=O)c2cnc(Nc3ccc(N4CCN(C)CC4)cc3)nc2n1-c1cccc(C(C)(C)O)n1 + Cc1[nH]c2ccc(F)cc2c1-c1nc2c3cccnc3c3ncccc3c2[nH]1

>  <viability, T/C>
77%

$$$$

# credit: PubChem BioAssay AID2060498
